tested on: Plasmodium berghei; test: Anti-plasmodial activity against pre-erythrocytic stage Plasmodium berghei infected in human Huh-7 cells at 10 to 500 nM by bioluminescence assay; format: functional, organism-based; details: dose 10-500 nM
Active and inactive are the calls of the source. No cut-off for these calls is given here.
Assign a class; possible classes are active, inactive

Example results:
CCC(C)[C@H]1O[C@]2(CC[C@@H]1C)C[C@@H]1C[C@@H](C/C=C(\C)[C@@H](O[C@H]3C[C@H](OC)[C@@H](O[C@H]4C[C@H](OO)[C@@H](OC(=O)CCl)[C@H](C)O4)[C@H](C)O3)[C@@H](C)/C=C/C=C3\CO[C@@H]4[C@H](O)C(C)=C[C@@H](C(=O)O1)[C@]34O)O2 (stereo not given in full); active
CCC(C)[C@H]1O[C@]2(CC[C@@H]1C)C[C@@H]1C[C@@H](C/C=C(\C)[C@@H](O[C@H]3C[C@H](OC)[C@@H](OC(=O)CNC4CCNCC4)[C@H](C)O3)[C@@H](C)/C=C/C=C3\CO[C@@H]4[C@H](O)C(C)=C[C@@H](C(=O)O1)[C@]34O)O2 (stereo not given in full); inactive
CCOC(=O)c1c(C)nc(OCc2cn(CC(=O)O[C@H]3[C@H](C)O[C@@H](O[C@@H]4/C(C)=C/C[C@@H]5C[C@@H](C[C@]6(CC[C@H](C)[C@@H](C(C)CC)O6)O5)OC(=O)[C@@H]5C=C(C)[C@@H](O)[C@H]6OC/C(=C\C=C\[C@@H]4C)[C@]65O)C[C@@H]3OC)nn2)nc1-c1cc(OC)c(OC)cc1[N+](=O)[O-] (stereo not given in full); active

(Q) Would you mind telling me which call this test gave CCC(C)[C@H]1O[C@]2(CC[C@@H]1C)C[C@@H]1C[C@@H](C/C=C(\C)[C@@H](O)[C@@H](C)/C=C/C=C3\CO[C@@H]4[C@H](O)C(CO)=C[C@@H](C(=O)O1)[C@]34O)O2 (stereo not given in full) ?
(A) inactive

(Q) What call does the record list for CCOC(=O)c1c(C)nc(OCc2cn(CC(=O)O[C@H]3[C@H](C)O[C@@H](O[C@H]4[C@H](C)O[C@@H](O[C@@H]5/C(C)=C/C[C@@H]6C[C@@H](C[C@]7(CC[C@H](C)[C@@H](C(C)CC)O7)O6)OC(=O)[C@@H]6C=C(C)[C@@H](O)[C@H]7OC/C(=C\C=C\[C@@H]5C)[C@]76O)C[C@@H]4OC)C[C@@H]3OC)nn2)nc1-c1cc(OC)c(OC)cc1[N+](=O)[O-] (stereo not given in full) ?
(A) active

###

system: Plasmodium berghei; experiment: Anti-plasmodial activity against pre-erythrocytic stage Plasmodium berghei infected in human Huh-7 cells by bioluminescence assay; type: functional, organism-based
Measurement name: pIC50
Here pIC50 is given on a logarithmic scale as minus log10 of the concentration in mol/L.

Consider the reported pIC50 for these compounds:
CCC(C)[C@H]1O[C@]2(CC[C@@H]1C)C[C@@H]1C[C@@H](C/C=C(\C)[C@@H](O[C@H]3C[C@H](OC)[C@@H](O)[C@H](C)O3)[C@@H](C)/C=C/C=C3\CO[C@@H]4[C@H](O[Si](C)(C)C(C)(C)C)C(C)=C[C@@H](C(=O)O1)[C@]34O)O2 (some centres not stated); 5.54
CCC(C)[C@H]1O[C@]2(CC[C@@H]1C)C[C@@H]1C[C@@H](C/C=C(\C)[C@@H](O[C@H]3C[C@H](OC)[C@@H](OC(=O)CNC4CCNCC4)[C@H](C)O3)[C@@H](C)/C=C/C=C3\CO[C@@H]4[C@H](O)C(C)=C[C@@H](C(=O)O1)[C@]34O)O2 (some centres not stated); 5.24
CCC(C)[C@H]1O[C@]2(CC[C@@H]1C)C[C@@H]1C[C@@H](C/C=C(\C)[C@@H](O[C@H]3C[C@H](OC)[C@@H](O[C@H]4C[C@H](OO)[C@@H](O)[C@H](C)O4)[C@H](C)O3)[C@@H](C)/C=C/C=C3\CO[C@@H]4[C@H](O[Si](C)(C)C(C)(C)C)C(C)=C[C@@H](C(=O)O1)[C@]34O)O2 (some centres not stated); 5.43

Recorded pIC50 (compound CCC(C)[C@H]1O[C@]2(CC[C@@H]1C)C[C@@H]1C[C@@H](C/C=C(\C)[C@@H](O[C@H]3C[C@H](OC)[C@@H](O)[C@H](C)O3)[C@@H](C)/C=C/C=C3\CO[C@@H]4[C@H](O)C(CO)=C[C@@H](C(=O)O1)[C@]34O)O2 (some centres not stated) ): 5.59

The measured pIC50 associated with CCC(C)[C@H]1O[C@]2(CC[C@@H]1C)C[C@@H]1C[C@@H](C/C=C(\C)[C@@H](O[C@H]3C[C@H](OC)[C@@H](O[C@H]4C[C@H](OO)[C@@H](OC(=O)CNC5CCNCC5)[C@H](C)O4)[C@H](C)O3)[C@@H](C)/C=C/C=C3\CO[C@@H]4[C@H](O)C(C)=C[C@@H](C(=O)O1)[C@]34O)O2 (some centres not stated) reads 5.24

Query CCOC(=O)c1c(C)nc(OCc2cn(CC(=O)O[C@H]3[C@H](C)O[C@@H](O[C@H]4[C@H](C)O[C@@H](O[C@@H]5/C(C)=C/C[C@@H]6C[C@@H](C[C@]7(CC[C@H](C)[C@@H](C(C)CC)O7)O6)OC(=O)[C@@H]6C=C(C)[C@@H](O)[C@H]7OC/C(=C\C=C\[C@@H]5C)[C@]76O)C[C@@H]4OC)C[C@@H]3OC)nn2)nc1-c1cc(OC)c(OC)cc1[N+](=O)[O-] (some centres not stated) yields pIC50 of 5.63

// field: pIC50; key: CCC(C)[C@H]1O[C@]2(CC[C@@H]1C)C[C@@H]1C[C@@H](C/C=C(\C)[C@@H](O[C@H]3C[C@H](OC)[C@@H](O[C@H]4C[C@H](OO)[C@@H](O)[C@H](C)O4)[C@H](C)O3)[C@@H](C)/C=C/C=C3\CO[C@@H]4[C@H](O)C(C)=C[C@@H](C(=O)O1)[C@]34O)O2 (some centres not stated) ; value = 5.82
